tested on: KM20L2 colon; experiment: NCI tumour cell line growth inhibition, 48 h
Reported TGI values are given for each entry in this list.

Compound	Target desc	TGI
O=C(/N=N/C(=O)OCc1ccccc1)OCc1ccccc1	KM20L2 colon	> 100 µM
C/C(CC(=O)Nc1cc(Cl)c(Cl)cc1Cl)=N\NC(N)=O	KM20L2 colon	> 100 µM
O=C1NC2OC(CO)C(O)C(O1)C2O (stereo not drawn)	KM20L2 colon	> 100 µM
O=C(N/N=C/c1cc(Br)cc(Br)c1[O-])c1ccccc1O.O=C(N/N=C/c1cc(Br)cc(Br)c1[O-])c1ccccc1O.[Fe+2]	KM20L2 colon	17.4 µM
COC(=O)C1Cc2c(n(Cc3ccccc3)c3ccccc23)C(CCC(=O)O)N1C(C)C (stereo not drawn)	KM20L2 colon	> 100 µM
O=C1CCC(=O)N2CCCCN12	KM20L2 colon	> 100 µM
OCC(O)CC[CH2][Sn]([Br])([c]1ccccc1)[c]1ccccc1 (stereo not drawn)	KM20L2 colon	> 100 µM
CSC(C1c2ccccc2N(c2ccc(C)cc2)C2=NC(=O)N(C)C(=O)C21Cl)S(=O)(=O)c1ccc(C)cc1 (stereo not drawn)	KM20L2 colon	48.4 µM
